// data source = paper PMC8822125

What Hemolytic rate, 100 μg/mL was measured for each of the following?
# System: sheep red blood cells;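 further: hemolysis expressed in % from supernatant absorbance, with PBS-treated cells as 0% baseline and melittin as 100%, peptide mixed 1:1 with an 8% v/v erythrocyte suspension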
# CONDITION: 100 μg/mL peptide; sheep red blood cells in PBS, 37°C, 1 h, OD576, relative to melittin; mean ± SD, three repeats
Where a SMILES comes first, the peptide text is derived from it.
Your answer should be a plain number; it is taken to be in %.

stdin: Suppose we examine the compound CC[C@@H](C)[C@@H](NC(=O)[C@@H](CCCNC(=N)N)NC(=O)[C@@H](CCCNC(=N)N)NC(=O)[C@@H](Cc1ccccc1)NC(=O)[C@@H](CC(C)C)NC(=O)[C@@H](CCCNC(=N)N)NC(=O)[C@H](N)CCCNC(=N)N)C(=O)N[C@H](CC(C)C)C(=O)N[C@H](CCCNC(=N)N)C(=O)N[C@H](Cc1c[nH]c2ccccc12)C(=O)N[C@H](CC(C)C)C(N)=O [RW-BP100-All-D] (HELM PEPTIDE1{[dR].[dR].[dL].[dF].[dR].[dR].[dI].[dL].[dR].[dW].[dL].[am]}$$$$V2.0) ; what Hemolytic rate, 100 μg/mL value has been reported?
stdout: 2.75

stdin: # query: Hemolytic rate, 100 μg/mL of entry CC[C@H](C)[C@H](NC(=O)[C@H](CCCNC(=N)N)NC(=O)[C@@H](CCCNC(=N)N)NC(=O)[C@H](Cc1ccccc1)NC(=O)[C@H](CC(C)C)NC(=O)[C@H](CCCNC(=N)N)NC(=O)[C@@H](N)CCCNC(=N)N)C(=O)N[C@@H](CC(C)C)C(=O)N[C@@H](CCCNC(=N)N)C(=O)N[C@@H](Cc1c[nH]c2ccccc12)C(=O)N[C@@H](CC(C)C)C(N)=O [RW-BP100-5D] (HELM PEPTIDE1{R.R.L.F.[dR].R.I.L.R.W.L.[am]}$$$$V2.0)
stdout: 2.49
